FYI, the data here is from patent US8143259B2.

Parameter: inhibition at 0.2 µM. Scope: all listed entries.
TEST TARGET: canine TRPM8 (Canis lupus familiaris)
Construct: expressed in transfected cells
ASSAY INFO: In Vitro Canine TRPM8 Functional Assay (Ca2+ fluorescence, icilin activation)
Format: cell-based
EXPERIMENTAL PARAMETERS: HEK293, 0.2 μM compound; canine TRPM8 HEK293; icilin
Provide the reading as a plain figure in %.

Example compounds with recorded inhibition at 0.2 µM:
{"COMPOUND": "CC(=O)Nc1cccc(C2CCCN2C(=O)C(Nc2ccccc2F)c2ccc(C(F)(F)F)cc2)c1 (stereo not shown)", "inhibition at 0.2 µM / %": 102}
{"COMPOUND": "O=C(C(Nc1ccccc1F)c1ccc(-c2ccc(-c3nnn[nH]3)cc2)cc1)N1CCC[C@H]1c1ccccc1F (stereo partly shown)", "inhibition at 0.2 µM / %": 53}
{"COMPOUND": "O=C(C(Nc1ccccc1F)c1cc2ccccc2s1)N1CCCC1c1ccccc1F (stereo not shown)", "inhibition at 0.2 µM / %": 98}

What measured inhibition at 0.2 µM goes with COC(=O)c1ccc(C2CCCN2C(=O)C(Nc2ccccc2F)c2cc3ccccc3s2)cc1 (stereo not shown) ? 101

What measured inhibition at 0.2 µM goes with O=C(C(Nc1ccccc1F)c1ccc(N2CCOCC2)nc1)N1CCCC1c1ccccc1F (stereo not shown) ? 100

What measured inhibition at 0.2 µM goes with COC(=O)c1ccc(C2CCCN2C(=O)C(Nc2ccccc2F)c2ccc(-c3ccccn3)cc2)cc1 (stereo not shown) ? 88

* * *

TEST TARGET: canine TRPM8 (Canis lupus familiaris, UniProt Q1A7N1)
Construct: expressed in transfected cells
Sequence (Q1A7N1 1-1104): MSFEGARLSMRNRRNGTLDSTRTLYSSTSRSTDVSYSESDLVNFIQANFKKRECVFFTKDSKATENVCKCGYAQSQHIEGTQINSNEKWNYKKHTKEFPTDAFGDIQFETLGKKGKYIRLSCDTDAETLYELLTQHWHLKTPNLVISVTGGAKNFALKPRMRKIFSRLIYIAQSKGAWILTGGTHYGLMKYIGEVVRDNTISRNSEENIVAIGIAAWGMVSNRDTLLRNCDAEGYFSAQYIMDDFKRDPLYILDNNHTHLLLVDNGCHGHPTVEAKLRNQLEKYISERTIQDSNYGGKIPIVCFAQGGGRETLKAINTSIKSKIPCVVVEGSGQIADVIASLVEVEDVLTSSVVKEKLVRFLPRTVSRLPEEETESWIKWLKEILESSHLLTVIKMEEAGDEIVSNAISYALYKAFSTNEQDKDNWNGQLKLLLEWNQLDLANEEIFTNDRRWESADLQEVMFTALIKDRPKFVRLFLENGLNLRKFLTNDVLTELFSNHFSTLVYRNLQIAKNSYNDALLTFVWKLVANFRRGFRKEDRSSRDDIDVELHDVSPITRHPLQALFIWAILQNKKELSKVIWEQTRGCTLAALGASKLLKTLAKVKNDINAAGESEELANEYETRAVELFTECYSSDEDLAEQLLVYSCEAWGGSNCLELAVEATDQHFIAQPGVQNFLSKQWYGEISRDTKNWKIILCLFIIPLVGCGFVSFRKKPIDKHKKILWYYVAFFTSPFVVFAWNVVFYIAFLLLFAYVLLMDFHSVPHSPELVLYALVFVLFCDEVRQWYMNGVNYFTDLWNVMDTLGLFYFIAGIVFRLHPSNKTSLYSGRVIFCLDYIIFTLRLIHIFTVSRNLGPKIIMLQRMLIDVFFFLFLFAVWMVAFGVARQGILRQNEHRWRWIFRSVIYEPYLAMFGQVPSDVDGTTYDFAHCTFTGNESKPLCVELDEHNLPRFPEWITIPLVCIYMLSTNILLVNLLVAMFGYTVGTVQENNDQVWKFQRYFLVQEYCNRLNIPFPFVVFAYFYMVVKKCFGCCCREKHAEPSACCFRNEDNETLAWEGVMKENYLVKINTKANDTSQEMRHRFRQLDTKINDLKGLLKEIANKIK
ASSAY INFO: In Vitro Canine TRPM8 Functional Assay (Ca2+ fluorescence, icilin activation)
Assay type: cell-based
EXPERIMENTAL PARAMETERS: 0.5 μM compound; canine TRPM8 HEK293; icilin; 0.5 µM
Parameter: % Inh @ 0.5 μM. Scope: all listed entries.
Provide the reading as a plain figure in %.

Example compounds with recorded % Inh @ 0.5 μM:
{"COMPOUND": "O=C(C(Nc1ccccc1)c1ccc(C(F)(F)F)cc1)N1CCCC1c1ccccc1F (single isomer, unassigned) [Cpd 46]", "TEST TARGET": "canine TRPM8 (Canis lupus familiaris, UniProt Q1A7N1)", "% Inh @ 0.5 μM / %": 101.53}
{"COMPOUND": "O=C(C(Nc1ccccc1F)c1ccc(C(F)(F)F)cc1)N1CCCC1c1cccc(F)c1 (centres unmarked)", "TEST TARGET": "canine TRPM8 (Canis lupus familiaris, UniProt Q1A7N1)", "% Inh @ 0.5 μM / %": 98}
{"COMPOUND": "O=C(C(Nc1ccccc1F)c1ccc(Cl)cc1)N1CCCC1c1ccccc1F (single isomer, unassigned)", "TEST TARGET": "canine TRPM8 (Canis lupus familiaris, UniProt Q1A7N1)", "% Inh @ 0.5 μM / %": 98}
{"COMPOUND": "O=C(C(Nc1cccc(F)c1F)c1ccc(Cl)cc1)N1CCCC1c1ccccc1Cl (single isomer, unassigned)", "TEST TARGET": "canine TRPM8 (Canis lupus familiaris, UniProt Q1A7N1)", "% Inh @ 0.5 μM / %": 96}
{"COMPOUND": "O=C(C(Nc1ccccc1F)c1ccc(C(F)(F)F)cc1)N1CCCC1c1ccccc1 (single isomer, unassigned)", "TEST TARGET": "canine TRPM8 (Canis lupus familiaris, UniProt Q1A7N1)", "% Inh @ 0.5 μM / %": 101}
{"COMPOUND": "O=C(C(Nc1ccccc1F)c1ccc(C(F)(F)F)cc1)N1CCCC1c1ccccc1F (single isomer, unassigned) [Cpd 151]", "TEST TARGET": "canine TRPM8 (Canis lupus familiaris, UniProt Q1A7N1)", "% Inh @ 0.5 μM / %": 100.72}
{"COMPOUND": "O=C(C(Nc1c(F)cccc1F)c1ccc(Br)cc1)N1CCCC1c1ccccc1F (single isomer, unassigned)", "TEST TARGET": "canine TRPM8 (Canis lupus familiaris, UniProt Q1A7N1)", "% Inh @ 0.5 μM / %": 99}
{"COMPOUND": "O=C(C(Nc1ccccc1F)c1ccc(Br)cc1)N1CCCC1c1ccccc1F (single isomer, unassigned)", "TEST TARGET": "canine TRPM8 (Canis lupus familiaris, UniProt Q1A7N1)", "% Inh @ 0.5 μM / %": 95}
{"COMPOUND": "O=C(C(CNc1ccccc1)c1ccc(C(F)(F)F)cc1)N1CCCC1c1ccccc1 (mixture of isomers) [Cpd 94]", "TEST TARGET": "canine TRPM8 (Canis lupus familiaris, UniProt Q1A7N1)", "% Inh @ 0.5 μM / %": 98}
{"COMPOUND": "O=C(C(Nc1cccc(F)c1F)c1ccc(Cl)cc1)N1CCCC1c1ccccc1F (single isomer, unassigned)", "TEST TARGET": "canine TRPM8 (Canis lupus familiaris, UniProt Q1A7N1)", "% Inh @ 0.5 μM / %": 96}

What measured % Inh @ 0.5 μM goes with O=C(C(Nc1ccccc1)c1ccc(C(F)(F)F)cc1)N1CCCC1c1ccccc1Cl (single isomer, unassigned) [Cpd 61] ? 103.2

What measured % Inh @ 0.5 μM goes with O=C(C(Nc1ccccc1F)c1ccc(C(F)(F)F)cc1)N1CCCC1c1ccccc1F (mixture of isomers) [Cpd 153] ? 99.694

What measured % Inh @ 0.5 μM goes with O=C(C(Nc1ccccc1)c1ccc(C(F)(F)F)cc1)N1CCCC1c1ccccc1F (single isomer, unassigned) [Cpd 48] ? 85.869

What measured % Inh @ 0.5 μM goes with O=C(C(Nc1ccccc1F)c1ccc(C(F)(F)F)cc1)N1CCCC1c1ccccc1F (single isomer, unassigned) [Cpd 154] ? 97.552
